Biological target: E6 (E2C) six-finger zinc finger protein (artificial)
Sequence (chain, as listed by the source): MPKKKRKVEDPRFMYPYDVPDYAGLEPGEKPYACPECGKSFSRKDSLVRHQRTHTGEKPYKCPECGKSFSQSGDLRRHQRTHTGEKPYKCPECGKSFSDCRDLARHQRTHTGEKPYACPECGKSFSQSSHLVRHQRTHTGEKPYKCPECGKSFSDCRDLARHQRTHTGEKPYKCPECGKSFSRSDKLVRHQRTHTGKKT
Experiment: EMSA
Conditions: tags: no cleavage domain
pKd: −log10 of the molar value.
Property Label: pKd

Binder	Property Label	Value Observed
E6 (E2C) binding site (dsDNA) DNA 1: GGGGCCGGAGCCGCAGTG DNA 2: CACTGCGGCTCCGGCCCC	pKd	9.07
